# reported BWZhT2 LUC Plate-bound (FOB); entries follow
experimentalTarget: recombinant human TREM2-DAP12 fusion protein expressed on cells (human)
Sequence (chain, as listed by the source limits assumed, form in doubt): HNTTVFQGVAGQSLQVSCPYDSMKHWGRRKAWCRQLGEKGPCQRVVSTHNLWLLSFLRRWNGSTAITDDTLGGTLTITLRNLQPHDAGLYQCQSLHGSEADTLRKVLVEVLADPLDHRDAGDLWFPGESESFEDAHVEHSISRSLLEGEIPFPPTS
protocolText: cell-based or functional assay
Just the number please, in FOB, no unit attached.

binder="9G1 (antibody, IgG1, V domains shown) VL: DVLMTQTPLSLPVSLGDQASISCRFSQSLVHSNGNTYLHWYLQKPGQSPKLLIYKVSNRFSGVPDRFSGSGSGTDFTLRISGVEAEDLGVYFCSQSTRVPPTFGGGTKLEIK VH: QVQLQQSGAELVKPGASVKLSCKASGYIFTTYWIHWVKQRPGRGPEWIGRIDPNNGDTNYNEKFKTKATLTVDKPSSTADMQLSSLTSEDSAVYYCVMTGTDFDYWGQGTTLTVSS" recordedresult=1.59
binder="6H2 (antibody, IgG2a, V domains shown) VL: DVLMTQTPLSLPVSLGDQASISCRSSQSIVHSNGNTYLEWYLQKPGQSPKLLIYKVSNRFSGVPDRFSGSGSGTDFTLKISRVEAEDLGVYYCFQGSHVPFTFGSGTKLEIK VH: QVQLQESGPGLVQPSQSLSIICTVSAFSLTNYAVHWIRQSPGKGLEWLGVIWSGGSTAFNAAFISRLNISKDNSKSQVFFKMNSLQSDDTAIYYCATHYYRSTYAFSYWGQGTLVTVSA" recordedresult=1.1
binder="8A1 (antibody, IgG2a, V domains shown) VL: DIQMTQSPASLSVSVGETVTITCRTSENVYSNLAWYQQKQGKSPQLLVYAATNLADGVPSRFSASGSATQFSLKINSLQSADFGSYYCHHFWGTPYTFGGGTKLEMN VH: EVQLQQSGAELVKPGASVKISCKASGYAFSNYWMSWVKQRPGKGLEWIGQIYPGDGDTKYNGKFEGKATLTADKSSSTAYMQLSSLTSEDSAVYFCSREKGADYYGSTYSAWFSYWGQGTLVTVSA" recordedresult=5.46
binder="3A2 (antibody, IgG1, V domains shown) VL: DVVMTQTPLSLPVSLGDQASISCRSSQTIIHSNGNTYLEWYLRKPGQSPKLLIYKVSNRFSGVPDRFSGSGSGTDFTLKISRVEAEDLGVYYCFQGSHVPYTFGGGTELEIK VH: QVQLQQSGAELVKPGASVKMSCKTSGYPFSNFWITWVKQRPGQGLVWIGDIYPGSDNSNYNEKFKTKATLTVDTSSSTAYMHLSSLTSEDSAVYFCAREAYYTNPGFAYWGQGTLVTVST" recordedresult=1.07

Report BWZhT2 LUC Plate-bound (FOB) for 9F5 (antibody, IgG1, V domains shown) VL: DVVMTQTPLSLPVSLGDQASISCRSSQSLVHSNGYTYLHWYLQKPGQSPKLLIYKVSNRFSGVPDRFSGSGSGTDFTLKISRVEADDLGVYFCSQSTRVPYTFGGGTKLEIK VH: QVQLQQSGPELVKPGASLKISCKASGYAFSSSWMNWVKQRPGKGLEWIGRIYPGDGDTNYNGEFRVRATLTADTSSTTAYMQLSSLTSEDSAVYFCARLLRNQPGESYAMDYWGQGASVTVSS please. 2.48

Report BWZhT2 LUC Plate-bound (FOB) for 10A9 (antibody, IgG1, V domains shown) VL: DVVMTQTPLSLPVSLGDQASISCRSSQTIIHSNGNTYLEWYLRKPGQSPKLLIYKVSNRFCGVPDRFSGSGSGTDFTLKISRVEAEDLGVYYCFQGSHVPYTFGGGTELEIK VH: QVQLQQSGAEVVKPGASVKMSCKTSGYPFSNFWITWVKQRPGQGLVWIGDIYPGSDNRNFNERFKTKATLTVDTSSSTAYMHLSSLTSEDSAVYFCAREAYYTNPGFAYWGQGTLVTVSA please. 2.18
